systemUnderTest: Mu-type opioid receptor (Rattus norvegicus, UniProt P33535)
Sequence (P33535 whole entry): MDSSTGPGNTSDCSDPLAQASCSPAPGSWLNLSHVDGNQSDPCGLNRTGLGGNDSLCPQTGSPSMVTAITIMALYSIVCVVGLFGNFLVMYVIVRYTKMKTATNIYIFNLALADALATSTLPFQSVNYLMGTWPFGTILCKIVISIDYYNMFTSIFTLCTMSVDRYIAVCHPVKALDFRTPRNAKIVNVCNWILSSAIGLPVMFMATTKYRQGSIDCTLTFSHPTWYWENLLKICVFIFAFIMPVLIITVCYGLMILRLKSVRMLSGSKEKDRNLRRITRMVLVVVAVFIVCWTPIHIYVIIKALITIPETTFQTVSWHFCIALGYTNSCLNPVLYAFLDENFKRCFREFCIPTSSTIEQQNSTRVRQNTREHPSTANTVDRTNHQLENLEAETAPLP
experimentDescription: Binding affinity against Opioid receptor mu 1 from rat brain membranes using [3H]DAMGO
reportedProperty: Ki (nM)
Hi! Could you send only the number? It should be in nM, unit omitted.

Here is how some compounds turned out for Ki.
>>> observedmeasurement("CCCCOc1cccc2c1[C@]13CCN(CC4CC4)[C@H](C2)[C@]1(OC)CCC(=O)C3")
13.8
>>> observedmeasurement("C=C(N)NCCCC(=O)NC1CC2CC(c3cccc(O)c3)(C1)C(C)CN2CCCc1ccccc1 (configuration not stated)")
87.1
>>> observedmeasurement("CN1CCC23c4c5ccc(O)c4O[C@H]2c2ncc(-c4ccc(Cl)cc4Cl)cc2C[C@H]3C1C5 (some centres not stated)")
97.7

Lab note: compound COc1ccc2c(c1O)[C@]13CCN(CC4CC4)C(C2)[C@]1(O)CC1c2ccccc2NC1C3 (some centres not stated) tested on Mu-type opioid receptor (Rattus norvegicus, UniProt P33535); recorded Ki was 1860

The observed Ki for C=C(N)NCCC(=O)NC1CC2CC(c3cccc(O)c3)(C1)C(C)CN2CCCc1ccccc1 (configuration not stated) when tested with Mu-type opioid receptor (Rattus norvegicus, UniProt P33535) stands at 5.25

Observed Ki, Mu-type opioid receptor (Rattus norvegicus, UniProt P33535), C=CCN1CCC23c4c5ccc(O)c4O[C@H]2c2ncc(-c4ccc(Cl)cc4)cc2C[C@@]3(O)C1C5 (some centres not stated) : 468

Entry COc1cccc2c1[C@]13CCN(CC4CC4)[C@H](C2)[C@]1(OC)CCC(=O)C3 under Mu-type opioid receptor (Rattus norvegicus, UniProt P33535) had Ki of 10.7

Mu-type opioid receptor (Rattus norvegicus, UniProt P33535) assay, compound O=C(Oc1ccc2c3c([nH]c2c1)[C@H]1Oc2c(O)ccc4c2[C@@]12CCN(CC1CC1)[C@H](C4)[C@]2(O)C3)c1ccccc1 , recorded Ki = 676

Observed Ki on Mu-type opioid receptor (Rattus norvegicus, UniProt P33535), entry CC1c2c([nH]c3ccccc23)[C@H]2Oc3c(O)ccc4c3[C@@]23CCN(CC2CC2)[C@H](C4)[C@H]13 (some centres not stated) , equals 66.1

---

systemUnderTest: UniProtKB P41144
Sequence (P41144 whole entry): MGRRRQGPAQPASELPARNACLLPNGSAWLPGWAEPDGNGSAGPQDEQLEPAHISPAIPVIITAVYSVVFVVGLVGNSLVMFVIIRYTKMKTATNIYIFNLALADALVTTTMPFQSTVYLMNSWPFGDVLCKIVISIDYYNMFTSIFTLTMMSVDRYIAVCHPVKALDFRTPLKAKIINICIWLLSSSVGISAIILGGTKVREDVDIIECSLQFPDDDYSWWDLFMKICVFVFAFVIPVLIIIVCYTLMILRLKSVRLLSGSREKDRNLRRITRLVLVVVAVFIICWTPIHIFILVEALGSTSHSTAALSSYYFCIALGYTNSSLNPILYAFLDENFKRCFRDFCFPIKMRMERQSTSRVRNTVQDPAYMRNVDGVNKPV
experimentDescription: Binding affinity against Opioid receptor kappa 1 from guinea pig brain membranes using [3H]U-69593
Entries whose Ki is below 80 nM take satisfied; entries at or above 80 nM take not satisfied.

Reference set, count: 5
>>> category("Cc1ncc2c(n1)[C@@H]1Oc3c(O)ccc4c3C13CCN(CC1CC1)C(C4)[C@]3(O)C2 (some centres undefined)")
"satisfied"
>>> category("C=CCN1CCC23c4c5ccc(O)c4O[C@H]2c2ncc(-c4ccc(Cl)cc4)cc2C[C@@]3(O)C1C5 (some centres undefined)")
"satisfied"
>>> category("C=CCN1CCC23c4c5ccc(O)c4O[C@@]2(C)c2[nH]c4ccccc4c2C[C@@]3(OCC)C1C5 (some centres undefined)")
"not satisfied"
>>> category("C/C=C/CN1CC[C@]23c4c5ccc(O)c4O[C@@H]2c2[nH]c4ccccc4c2C(C)[C@H]3[C@H]1C5 (some centres undefined)")
"not satisfied"
>>> category("CC(C)=CCN1CC[C@]23c4c5ccc(O)c4O[C@@H]2c2[nH]c4ccccc4c2C[C@@]3(O)[C@H]1C5")
"not satisfied"

## Input Determine whether this compound shows Ki lower than 80 nM (ties excluded): Cc1nc(-c2ccccc2)c2c(n1)[C@@H]1Oc3c(O)ccc4c3C13CCN(CC1CC1)C(C4)[C@]3(O)C2 (some centres undefined)
## Output not satisfied

## Input Would you kindly verify if Ki of Oc1ccc2c3c1O[C@H]1c4ncncc4C[C@@]4(O)C(C2)N(CC2CC2)CCC314 (some centres undefined) is strictly less than 80 nM?
## Output satisfied

## Input Strictly below 80 nM in Ki? Oc1ccc2c3c1O[C@@H]1c4[nH]c5ccc(-c6ccccc6)cc5c4C[C@@]4(O)[C@@H](C2)N(CC2CC2)CC[C@]314
## Output not satisfied

## Input Just wondering, is Ki of CO[C@@]12CCC(=O)CC13CCN(CC1CC1)C2Cc1cccc(OCCCc2ccccc2)c13 (some centres undefined) below 80 nM?
## Output not satisfied

## Input Is Ki of Oc1ccc2c3c1O[C@@H]1c4[nH]c5c(-c6ccccc6)cccc5c4C[C@@]4(O)[C@@H](C2)N(CC2CC2)CC[C@]314 strictly below 80 nM?
## Output not satisfied
